Hey, just so you know, these numbers are from patent US20110301211A1.

system: human LPA1 (Homo sapiens)
Construct: the full-length cDNA for human LPA1 was obtained by PCR of the reverse transcription reaction
Sequence (Q92633 whole entry): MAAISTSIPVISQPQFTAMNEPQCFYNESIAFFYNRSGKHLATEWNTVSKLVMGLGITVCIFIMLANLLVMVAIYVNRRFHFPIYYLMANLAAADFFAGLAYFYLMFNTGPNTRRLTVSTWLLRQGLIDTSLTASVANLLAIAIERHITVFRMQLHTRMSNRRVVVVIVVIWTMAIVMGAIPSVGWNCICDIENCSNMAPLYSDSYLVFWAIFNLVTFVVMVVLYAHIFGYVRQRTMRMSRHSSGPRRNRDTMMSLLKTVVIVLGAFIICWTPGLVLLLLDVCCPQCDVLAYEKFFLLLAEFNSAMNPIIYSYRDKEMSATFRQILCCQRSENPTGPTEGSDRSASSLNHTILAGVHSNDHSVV
experiment description: HLPA1 Ca Flux assay (LPA1 calcium flux assay)
condition notes: CHO cells expressing human LPA1, 10 nM LPA
measured attribute: IC50

>  <molecule>
COc1ccc(CC(=O)O)cc1-c1ccc(-c2onc(C)c2NC(=O)OC(C)c2ccccc2Cl)cc1 (stereo not shown)

>  <measured attribute>
IC50

>  <result value>
1000 to 50000 nM

$$$$
>  <molecule>
Cc1noc(-c2ccc(-c3ccc(CC(=O)NCCS(=O)(=O)O)cc3)cc2)c1NC(=O)O[C@H](C)c1ccccc1

>  <measured attribute>
IC50

>  <result value>
< 300 nM

$$$$
>  <molecule>
COc1ccc(C(C)OC(=O)Nc2c(C)noc2-c2ccc(-c3ccc(CC(=O)O)cc3)cc2)c(F)c1 (stereo not shown)

>  <measured attribute>
IC50

>  <result value>
1000 to 50000 nM

$$$$
>  <molecule>
Cc1noc(-c2ccc(-c3cccc(CC(=O)O)c3)cc2)c1NC(=O)O[C@H](C)c1ccccc1

>  <measured attribute>
IC50

>  <result value>
300 to 1000 nM

$$$$
